Provenance of the data: ChEMBL document CHEMBL1155035

Measured pEC50 accompanies every entry in the list below.
experiment: Antioxidant activity assessed as ABTS radical scavenging activity after 12 hrs; format: functional
On this scale, pEC50 is minus log10 of a concentration expressed in M (mol/L).

# example entries with known answers
Cc1c(C)c2c(c(C)c1O)CCC(C)(C(=O)O)O2 (stereo not given) : 4.93
C/C=C/c1cc2c(c(=O)o1)-c1c(O)c(O)c(OC)c(C(=O)O)c1CO2 : 4.83
C/C=C/c1cc2c(c(=O)o1)-c1c(O)c(O)c(OC)c(C(=O)O)c1C(OC)O2 (stereo not given) : 5.01

Okay, next one:
Ask: Which pEC50 reading was recorded for the compound C/C=C/c1cc2c(c(=O)o1)-c1c(O)c(O)c(OC)c(C(=O)O)c1C(O)O2 (stereo not given) ?
Reply: 5.15
